This collection of values is drawn from patent US8163737B2.

Below, each of the compounds is paired with its reported pKi value.
Biological target: CGRP receptor (SK-N-MC membrane) (Homo sapiens, UniProt O60894+Q16602)
Construct: Purified SK-N-MC membrane was purchased from Perkin Elmer
Sequence (Q16602 23-461): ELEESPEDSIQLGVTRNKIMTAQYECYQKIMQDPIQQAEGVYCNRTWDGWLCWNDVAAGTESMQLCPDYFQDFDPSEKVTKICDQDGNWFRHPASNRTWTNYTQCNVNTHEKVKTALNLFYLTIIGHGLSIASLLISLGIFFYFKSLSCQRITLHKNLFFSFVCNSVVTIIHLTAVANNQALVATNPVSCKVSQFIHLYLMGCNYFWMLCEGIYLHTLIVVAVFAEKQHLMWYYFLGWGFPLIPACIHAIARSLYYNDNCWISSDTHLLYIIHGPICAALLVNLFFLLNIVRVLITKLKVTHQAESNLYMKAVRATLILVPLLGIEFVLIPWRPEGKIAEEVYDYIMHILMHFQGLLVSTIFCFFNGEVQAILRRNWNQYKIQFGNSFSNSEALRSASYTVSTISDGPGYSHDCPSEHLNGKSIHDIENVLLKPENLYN
Sequence (O60894 27-148): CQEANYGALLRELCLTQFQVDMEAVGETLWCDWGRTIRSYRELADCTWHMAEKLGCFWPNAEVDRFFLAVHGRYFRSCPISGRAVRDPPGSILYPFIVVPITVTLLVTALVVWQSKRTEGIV
Assay: I125-CGRP binding displacement assay on purified SK-N-MC membrane
Experimental: Purified SK-N-MC membrane was purchased from Perkin Elmer. The membrane was thawed quickly and placed on ice. The compounds were diluted with CGRP binding solution (25 mM Tris-HCl, pH7.4, 5 mM MgCl2, 0.1% BSA and 0.05% Tween). […] The radioactivity of the filter plates were read on Topcount (Packard). The nonspecific binding was determined in the control reaction where 1 uM unlabelled CGRP was preincubated with the membrane prior to I125-CGRP addition. […]
pKi: −log10 of the molar value.

O=C(CC1SC(c2ccccc2)N(CC2CC2)C1=O)N1CCC(N2Cc3ccccc3NC2=O)CC1 (stereo not drawn) [Compound 271] : > 6.00
CC(C)OCCN1C(=O)[C@H](CC(=O)N2CCC(n3c(=O)[nH]c4ncccc43)CC2)SC1c1cccc(F)c1N1CCN(C(C)(C)C)CC1 (stereo partly drawn) [Compound 530] : > 6.00

Next:
Test system CGRP receptor (SK-N-MC membrane) (Homo sapiens, UniProt O60894+Q16602); read-out pKi; what value for CC(C)CCN1C(=O)C(CC(=O)N2CCC(n3c(=O)[nH]c4ccccc43)CC2)S[C@H]1c1ccccc1N1CCC(O)CC1 (stereo partly drawn) [Compound 290] ? > 6.00

====

Below, each of the molecules is paired with its reported IC50 value.
Biological target: endogenous CGRP receptor (Homo sapiens, UniProt O60894+Q16602)
Sequence (Q16602 23-461): as the sequence (Q16602 23-461) above
Sequence (O60894 27-148): as the sequence (O60894 27-148) above
Assay: CGRP functional antagonism using SK-N-MC-BLA (4C10), β-lactamase transcriptional reporter assay
Details: SK-N-MC (4C10) cells, inhibition of β-lactamase expression in the presence of 200 pM CGRP

CC(C)(C)CCN1C(=O)[C@H](CC(=O)N2CCC(N3Cc4ccccc4NC3=O)CC2)S[C@H]1c1cccc(F)c1N1CCC(N)C1 (some centres unmarked) : < 1000 nM

Next:
Test system endogenous CGRP receptor (Homo sapiens, UniProt O60894+Q16602); read-out IC50; what value for CC(C)(C)CCN1C(=O)C(CC(=O)N2CCC(N3Cc4ccccc4NC3=O)CC2)SC1c1ccccc1 (centres unmarked) ? < 1000 nM

====

Below, each of the compounds is paired with its reported pIC50 value.
Molecular target: endogenous CGRP receptor (Homo sapiens, UniProt O60894+Q16602)
Test: CGRP functional antagonism using SK-N-MC-BLA (4C10), β-lactamase transcriptional reporter assay
Details: SK-N-MC (4C10) cells, inhibition of β-lactamase expression in the presence of 200 pM CGRP
pIC50: −log10 of the molar value.

Use the examples below as a reference point.
CC(C)(C)CCN1C(=O)[C@H](CC(=O)N2CCC(N3CCc4ccccc4NC3=O)CC2)SC1c1cnc(C2CCNCC2)s1 (stereo partly shown) [Compound 497] : > 6.00
CC(C)(C)CCN1C(=O)C(CC(=O)N2CCC(n3c(=O)[nH]c4ccccc43)CC2)SC1c1ccccc1-n1cccn1 (stereo not shown) [Compound 297] : > 6.00
CN1CCN(c2ccccc2[C@H]2S[C@](C)(CC(=O)N3CCC(N4CCc5ccccc5NC4=O)CC3)C(=O)N2CCC(C)(C)C)CC1 [Compound 377] : 5.30 to 6.00
CN1CCN(c2ccccc2C2SC(CC(=O)N3CCC4(CC3)CNC(=O)c3ccccc3O4)C(=O)N2CCC(C)(C)C)CC1 (stereo not shown) [Compound 330] : 5.30 to 6.00
CC(C)(C)CCN1C(=O)[C@H](CC(=O)N2CCC(N3CCc4ccccc4NC3=O)CC2)SC1c1cccc(F)c1N1CCC(N)C1 (stereo partly shown) [Compound 466] : > 6.00
O=C(CC1SC(c2ccccc2)N(CC2CC2)C1=O)N1CCC(N2CCc3ccccc3NC2=O)CC1 (stereo not shown) [Compound 138] : > 6.00

Next:
Test system endogenous CGRP receptor (Homo sapiens, UniProt O60894+Q16602); read-out pIC50; what value for O=C(CC1SC(c2ccccc2)N(C2CCCCC2)C1=O)N1CCC(N2Cc3ccccc3NC2=O)CC1 (stereo not shown) [Compound 1] ? > 6.00

====

Target: endogenous CGRP receptor (Homo sapiens, UniProt O60894+Q16602)
Assay: CGRP functional antagonism using SK-N-MC-BLA (4C10), β-lactamase transcriptional reporter assay
Details: SK-N-MC (4C10) cells, inhibition of β-lactamase expression in the presence of 200 pM CGRP
Below, each of the compounds is paired with its reported IC50 value.

Use the examples below as a reference point.
CC(C)CCN1C(=O)C(CC(=O)N2CCC(N3Cc4ccccc4NC3=O)CC2)SC1c1cccc(F)c1 (stereo not shown) : < 1 µM
COc1ccc(C2SC(CC(=O)N3CCC(N4Cc5ccccc5NC4=O)CC3)C(=O)N2CCC(C)C)cc1 (stereo not shown) : 1 to 5 µM
CC(C)(C)CCN1C(=O)[C@H](CC(=O)N2CCC(n3c(=O)[nH]c4ncccc43)CC2)SC1c1ccccc1C1CCNCC1 (stereo partly shown) : < 1 µM
CC(C)(C)CCN1C(=O)[C@H](CC(=O)N2CCC(n3c(=O)[nH]c4ncccc43)CC2)SC1c1cccc(F)c1NCCN1CCCCC1 (stereo partly shown) : < 1 µM

Test system endogenous CGRP receptor (Homo sapiens, UniProt O60894+Q16602); read-out IC50; what value for CC(C)(C)CCN1C(=O)C(CC(=O)N2CCC(N3CCc4ccccc4NC3=O)CC2)SC12CCCCCC2 (stereo not shown) ? < 1 µM

Now consider CN1CCN(c2ccccc2[C@@H]2SC(CC(=O)N3CCC(n4c(=O)[nH]c5ncccc54)CC3)C(=O)N2CCC(C)(C)C)CC1 (stereo partly shown) and answer again. < 1 µM

Now consider CN(C)c1ccccc1C1SC(CC(=O)N2CCC(N3Cc4ccccc4NC3=O)CC2)C(=O)N1CCC(C)(C)C (stereo not shown) [Compound 211] and answer again. 1 to 5 µM

====

Target: endogenous CGRP receptor (Homo sapiens, UniProt O60894+Q16602)
Assay: CGRP functional antagonism using SK-N-MC-BLA (4C10), β-lactamase transcriptional reporter assay
Settings: SK-N-MC (4C10) cells, inhibition of β-lactamase expression in the presence of 200 pM CGRP
Protocol: Measuring CGRP Functional Antagonism Using SK-N-MC-BLA (4C10): CGRP functional antagonism was characterized in a cell based transcriptional assay using a recombinant SK-N-MC line. […] Single clones were separated using Fluorescent Activated Cell Sorting (FACS) based on CGRP induced β-lactamase activity. β-lactamase activity was measured using a fluorescence energy transfer (FRET) dye, CCF4. […]
pIC50: −log10 of the molar value.
observable: pIC50

Use the examples below as a reference point.
CC(C)(C)N1C(=O)C(CC(=O)N2CCC(N3Cc4ccccc4NC3=O)CC2)SC1c1ccccc1 (stereo not drawn) : < 5.30
O=C(CC1SC(c2ccccc2)N(CCc2ccccn2)C1=O)N1CCC(N2Cc3ccccc3NC2=O)CC1 (stereo not drawn) : 5.30 to 6.00
CC(C)(C)CCN1C(=O)[C@H](CC(=O)N2CCC(N3CCc4ccccc4NC3=O)CC2)SC1c1ccn(C2CCNCC2)n1 (stereo partly drawn) : > 6.00

Fill in the blank: the reported pIC50 of CC(C)CCN1C(=O)C(CC(=O)N2CCC(N3Cc4ccccc4NC3=O)CC2)[S+]([O-])C1c1ccc(F)cc1F (stereo not drawn) is ____. > 6.00

====

Molecular target: endogenous CGRP receptor (Homo sapiens, UniProt O60894+Q16602)
Assay: CGRP functional antagonism using SK-N-MC-BLA (4C10), β-lactamase transcriptional reporter assay
Details: SK-N-MC (4C10) cells, inhibition of β-lactamase expression in the presence of 200 pM CGRP
observable: IC50

Use the examples below as a reference point.
CC(C)(C)CCN1C(=O)[C@H](CC(=O)N2CCC(N3CCc4ccccc4NC3=O)CC2)SC1c1cccc(F)c1NCCN1CCCCC1 (stereo partly drawn) : < 1000 nM
CC(C)(C)CCN1C(=O)C(CC(=O)N2CCC(N3CCc4ccccc4NC3=O)CC2)SC1c1ccccc1 (stereo not drawn) : < 1000 nM
CC(C)(C)CCN1C(=O)[C@H](CC(=O)N2CCC(n3nnc4ccccc43)CC2)SC1c1cccc(F)c1N1CCN(C(C)(C)C)CC1 (stereo partly drawn) : 1000 to 5000 nM

Fill in the blank: the reported IC50 of CC(C)(C)CCN1C(=O)[C@H](CC(=O)N2CCC(N3CCc4ccccc4NC3=O)CC2)SC1c1cccc(F)c1N1CCC(F)C1 (stereo partly drawn) is ____. 1000 to 5000 nM

====

Target: endogenous CGRP receptor (Homo sapiens, UniProt O60894+Q16602)
Experiment: CGRP functional antagonism using SK-N-MC-BLA (4C10), β-lactamase transcriptional reporter assay
Settings: SK-N-MC (4C10) cells, inhibition of β-lactamase expression in the presence of 200 pM CGRP
pIC50: −log10 of the molar value.
observable: pIC50

CC(C)(C)CCN1C(=O)C(CC(=O)N2CCC(N3CCc4ccccc4NC3=O)CC2)SC1c1c(F)cccc1F (stereo not drawn) : > 6.00
O=C(CC1SC(c2cccc(F)c2F)N(CC2CCCCC2)C1=O)N1CCC(N2CCc3ccccc3NC2=O)CC1 (stereo not drawn) : > 6.00

Next:
Test system endogenous CGRP receptor (Homo sapiens, UniProt O60894+Q16602); read-out pIC50; what value for CCN(CC)CCN1C(=O)C(CC(=O)N2CCC(N3Cc4ccccc4NC3=O)CC2)SC1c1ccccc1 (stereo not drawn) ? 5.30 to 6.00
